B1: minF1; the commonest letter at each place (parent)
chain: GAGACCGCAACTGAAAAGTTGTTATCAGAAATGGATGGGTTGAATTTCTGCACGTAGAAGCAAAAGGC

variants of: B1; test: fraction ligated after 30 min (ligated reads / total reads); higher = more ligase activity; details: with F1*subA RNA substrate (template-directed ligation), 42 °C
Consider the following partition of reported fraction ligated into named classes: low value: < 0.009; medium value: ≥ 0.009 and < 0.1; high value: ≥ 0.1

chain: GAGACCGCAACTGAAAAGTTGTTACCATAAATGGATGGGTTGAATTTCTGCACGTAGAAGCAAAAGGC [T25C G28T]
qualitative.label: high value
--
chain: GAGACCGCAACTGAAAAGTTGTTAGCAGAAATGGACGGGTTGAATTTCTGCACGTAGAAGCAAAAGGC [T25G T36C]
qualitative.label: low value
--
chain: GAGACCGCAACTGAAAAGTTGTTATCGGCAATGGATGGGTTGAATTTCTGCACGTAGAAGCAAAAGGC [A27G A29C]
qualitative.label: high value
--
chain: GAGACCGCAACTGAAAAGTTGTCATCAGTAATGGATGGGTTGAATTTCTGCACGTAGAAGCAAAAGGC [T23C A29T]
qualitative.label: high value
--
chain: GAGACCGCAACTGAAAAGTTGTTTTCAGAAATGGATGGGTTCAATTTCTGCACGTAGAAGCAAAAGGC [A24T G42C]
qualitative.label: low value
--
chain: GAGACCGCAACTGAAAAGTTGTTATCTGAAATGGAAGGGTTGAATTTCTGCACGTAGAAGCAAAAGGC [A27T T36A]
qualitative.label: high value
--
chain: GAGACCGCAACTGAAAAGTTGTTATCAGAAATGGCTGGGTTGAATTTCTGCACGTAGAAGCAAAAGGC [A35C]
qualitative.label: medium value
--
chain: GAGACCGCAACTGAAAAGTTGTTAAAAGAAATGGATGGGTTGAATTTCTGCACGTAGAAGCAAAAGGC [T25A C26A]
qualitative.label: low value
--
chain: GAGACCGCAACTGAAAAGTTGTTGTCAGAAATGGGTGGGTTGAATTTCTGCACGTAGAAGCAAAAGGC [A24G A35G]
qualitative.label: medium value
--
chain: GAGACCGCAACTGAAAAGTTGTTATCAGGAATGGATAGGTTGAATTTCTGCACGTAGAAGCAAAAGGC [A29G G37A]
qualitative.label: medium value
